Target Or Test System: hSGLT2 A395T (Homo sapiens, UniProt P31639, A395T)
Sequence (Q13113 whole entry): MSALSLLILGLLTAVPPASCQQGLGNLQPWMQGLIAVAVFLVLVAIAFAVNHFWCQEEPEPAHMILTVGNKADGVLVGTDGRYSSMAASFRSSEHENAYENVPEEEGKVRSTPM
Sequence (P31639 whole entry A395T): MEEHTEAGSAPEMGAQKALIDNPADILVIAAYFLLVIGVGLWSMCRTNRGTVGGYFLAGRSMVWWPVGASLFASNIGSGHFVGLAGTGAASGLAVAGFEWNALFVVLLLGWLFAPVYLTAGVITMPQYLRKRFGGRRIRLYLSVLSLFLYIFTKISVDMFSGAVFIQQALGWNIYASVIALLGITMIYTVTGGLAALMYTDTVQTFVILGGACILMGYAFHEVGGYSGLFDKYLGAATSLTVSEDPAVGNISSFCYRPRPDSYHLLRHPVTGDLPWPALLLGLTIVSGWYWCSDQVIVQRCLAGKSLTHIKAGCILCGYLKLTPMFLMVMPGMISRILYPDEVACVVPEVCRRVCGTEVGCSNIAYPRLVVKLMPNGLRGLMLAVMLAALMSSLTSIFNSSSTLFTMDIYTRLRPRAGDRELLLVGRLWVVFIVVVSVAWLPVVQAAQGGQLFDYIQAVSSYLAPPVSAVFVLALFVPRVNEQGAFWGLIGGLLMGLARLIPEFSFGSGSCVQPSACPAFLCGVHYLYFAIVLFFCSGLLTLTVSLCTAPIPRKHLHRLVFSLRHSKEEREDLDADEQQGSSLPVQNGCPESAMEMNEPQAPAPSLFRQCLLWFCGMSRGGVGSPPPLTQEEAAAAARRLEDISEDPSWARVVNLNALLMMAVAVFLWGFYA
Protocol: cell-based
Applied Conditions: poor expression; n = 3 oocytes (n = 2 for dapa-aglycon)
Property Measured: Ki (µM)
Please reply with the bare figure in µM and do not write the unit itself.

Exam item: Need Ki, item `O=C(CCc1ccc(O)cc1)c1c(O)cc(O)cc1O`
Marked response: 129

---

Target Or Test System: UniProt:P13866
Sequence (P13866 whole entry): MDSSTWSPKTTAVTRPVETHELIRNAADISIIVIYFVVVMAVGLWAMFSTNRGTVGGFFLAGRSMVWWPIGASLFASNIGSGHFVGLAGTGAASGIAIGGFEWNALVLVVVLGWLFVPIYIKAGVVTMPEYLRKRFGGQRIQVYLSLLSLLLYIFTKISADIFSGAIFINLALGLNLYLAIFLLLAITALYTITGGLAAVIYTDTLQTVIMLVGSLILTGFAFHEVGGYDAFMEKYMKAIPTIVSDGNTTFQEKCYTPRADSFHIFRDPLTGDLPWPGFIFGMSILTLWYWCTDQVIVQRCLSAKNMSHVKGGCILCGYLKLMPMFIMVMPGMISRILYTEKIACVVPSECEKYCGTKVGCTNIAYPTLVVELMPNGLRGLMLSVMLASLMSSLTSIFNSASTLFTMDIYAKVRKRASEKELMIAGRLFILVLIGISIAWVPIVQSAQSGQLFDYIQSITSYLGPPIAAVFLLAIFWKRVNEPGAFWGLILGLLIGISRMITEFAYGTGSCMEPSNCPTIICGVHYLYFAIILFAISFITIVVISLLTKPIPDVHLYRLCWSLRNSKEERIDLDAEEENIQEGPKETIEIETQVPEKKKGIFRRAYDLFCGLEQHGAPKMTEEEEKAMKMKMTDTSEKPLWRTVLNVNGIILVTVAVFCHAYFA
Protocol: SGLT current measurement (two electrode voltage clamp) in oocytes, hSGLT1 wild-type
Applied Conditions: inhibition of αMDG currents (100 mM NaCl) or capacitive currents, 22 °C
Property Measured: pKi
Note on pKi: it is the negative log10 of concentration, concentration in mol/L.

Exam item: Any idea what pKi was measured for CCOc1ccc(Cc2cc(O)ccc2Cl)cc1 [dapa-aglycon] ?
Marked response: 3.37
